assay.method.text: Measurement of LogP values by HPLC on reversed phase columns (EEC directive 79/831 Annex V.A8)
Assay type: physicochemical
The following compounds are listed with their measured LogP [a] values.

- compound: "O=C(NCc1cc(F)c(F)c(F)c1)c1snc(N=S2CCCC2)c1Cl"
  value: "1.96^[a]"

The value of LogP [a] measured for the compound COc1ccc(CNc2nsc(C(=O)NC(C)Cc3ccccc3Cl)c2Cl)cc1 (stereo not drawn) turned out to be 4.33^[a]

Lab note: `CNS(=O)(=O)Nc1nsc(C(=O)NCC2CCCCC2)c1Cl` gave LogP [a] of 2.38^[a]

The value of LogP [a] measured for the compound `CCOC(=O)c1snc(N)c1Br` turned out to be 1.93^[a]

Entry `COC(=O)c1snc(N)c1Cl` — recorded LogP [a] = 1.42^[a]

LogP [a] reading for COC(=O)CC(NC(=O)c1snc(Cl)c1Cl)C1CCCCC1 (stereo not drawn) : 4.03

The compound identified as CC(Cc1ccccc1Cl)NC(=O)c1snc(N)c1Cl (stereo not drawn) registered its LogP [a] at 2.64^[a]

// field: LogP [a]; key: `O=C(NCC1CCCCC1)c1snc(N=S2CCCC2)c1F` ; value = 1.72^[a]

For reference, reported LogP [a] for CCCS(CC)=Nc1nsc(C(=O)NCc2c(F)cc(F)cc2F)c1F (stereo not drawn) stands at 1.92^[a]

Measured LogP [a] of CS(C)=Nc1nsc(C(=O)NCC2CCOC2)c1F (stereo not drawn) : 0.26^[a]

The reported value for O=C(NC(c1ccccc1)C1CCCCC1)c1snc(Cl)c1Cl (stereo not drawn) in terms of LogP [a] is 5.19

Lab note: measured LogP [a] of `O=C(NCc1ccc(F)cc1F)c1snc(N=S2CCCC2)c1F` was 1.57^[a]

The compound listed as `CS(C)=Nc1nsc(C(=O)NCc2cc(F)c(F)cc2F)c1F` has a reported LogP [a] of 1.43^[a]

###

assay.method.text: Measurement of LogP values by HPLC on reversed phase columns (EEC directive 79/831 Annex V.A8)
Type: physicochemical
measured.endpoint: LogP [a]

- compound: "O=C(NC1CCc2ccccc21)c1snc(Cl)c1Cl (stereo not drawn) [E-II-020]"
  value: 3.70

GET /value?item= O=C(NCC1CCCO1)c1snc(N=C(c2ccccc2)c2ccccc2)c1Cl (stereo not drawn) [II-005] &field=LogP [a] returns 3.83^[a]

Reported LogP [a] ( O=C(NCC1CCCCC1)c1snc(N=S2CCCCC2)c1Cl [II-088] ) = 2.60^[a]

###

assay.method.text: Measurement of LogP values by HPLC on reversed phase columns (EEC directive 79/831 Annex V.A8)
Format: physicochemical
Marks after values point to notes of the source that are not given here.
measured.endpoint: LogP

- compound: "Nc1nsc(C(=O)NCc2cc(F)c(F)c(F)c2)c1Cl"
  measured.endpoint: "LogP"
  value: "2.13[a]"
- compound: "CCC(C)CNC(=O)c1cc(N)ns1 (stereo not drawn)"
  measured.endpoint: "LogP"
  value: "1.44[a]"
- compound: "CC1(C)CC1N(Cc1ccc(Cl)cc1Cl)C(=O)c1snc(N)c1Cl (stereo not drawn)"
  measured.endpoint: "LogP"
  value: "4.12[a]"
- compound: "COc1ccc(CN(C)c2nsc(C(=O)N[C@@H](C)C3CCCCC3)c2Cl)cc1"
  measured.endpoint: "LogP"
  value: "5.51[a]"
- compound: "COc1ccc(CNc2nsc(C(=O)NCC3CCCC3)c2Cl)cc1"
  measured.endpoint: "LogP"
  value: "4.04[a]"

Record `Cc1ccc(CNC(=O)c2snc(N)c2Cl)c(F)c1F` , field LogP: 2.26[a]

LogP reading for `Nc1nsc(C(=O)NCCc2ccccc2)c1Cl` : 1.98[a]

Documented LogP of `O=C(NCc1ccccc1F)c1snc(NC(=O)C2CC2)c1Cl` : 2.12[a]

LogP reported for this compound COc1ccc(CNc2nsc(C(=O)N(CC3C(C)CCCC3(C)C)C3CC3)c2Cl)cc1 (stereo not drawn) : 6.09[a]
